FYI, the data here is from patent US20220315534A1.

// reported EC50 per item
# experimental_system: β1-adrenergic receptor (B1-AR) (Homo sapiens)
# Construct: expressed in transfected cells
# assay_explanation: cAMP Gs dynamic HTRF assay, cells expressing β1-adrenergic receptor
# Format: cell-based
# stated_conditions: CHO-K1 (HitHunter) cells; read-out: Average pEC50 [Receptor subtype: B1-AR; Cell type: CHO-K1 (HitHunter)] (converted)
metric_name: EC50

CC(C)(C)NC[C@@H](O)c1ccc2cccc(Cl)c2n1 = 10 to 100 nM
CC(C)(C)NC[C@H](O)c1ccnc2cccnc12 = 10 to 100 nM
CC(C)(C)NC[C@H](O)c1c(F)ccc2cccnc12 = 100 to 1000 nM
CC(C)(C)NC[C@H](O)c1ncc(O)c2ccccc12 = > 1000 nM
Cc1cc(N)nc([C@H](O)CNC(C)(C)C)c1 = > 1000 nM

====

// reported EC50 per item
# experimental_system: β1-adrenergic receptor (B1-AR) (Homo sapiens, UniProt P08588)
# Construct: expressed in transfected cells
# Sequence (P08588 whole entry): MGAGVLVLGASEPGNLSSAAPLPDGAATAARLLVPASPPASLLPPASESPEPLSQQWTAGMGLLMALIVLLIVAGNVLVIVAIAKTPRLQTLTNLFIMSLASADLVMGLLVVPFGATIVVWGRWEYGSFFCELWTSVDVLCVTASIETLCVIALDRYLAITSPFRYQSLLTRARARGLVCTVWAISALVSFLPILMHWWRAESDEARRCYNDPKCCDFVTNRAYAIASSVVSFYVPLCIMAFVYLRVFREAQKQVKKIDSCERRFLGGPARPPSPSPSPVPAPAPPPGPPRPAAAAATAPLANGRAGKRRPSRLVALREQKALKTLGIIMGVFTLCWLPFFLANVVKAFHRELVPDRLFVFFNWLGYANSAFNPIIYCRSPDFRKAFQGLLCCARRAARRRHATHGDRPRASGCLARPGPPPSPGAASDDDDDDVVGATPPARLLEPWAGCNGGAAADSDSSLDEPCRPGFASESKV
# assay_explanation: cAMP Gs dynamic HTRF assay, cells expressing β1-adrenergic receptor
# Assay type: cell-based
# stated_conditions: CHO-K1 (HitHunter) cells; read-out: Average pEC50 [Receptor subtype: B1-AR; Cell type: CHO-K1 (HitHunter)] (converted)
# Procedure: cAMP homogeneous time-resolved fluorescence (HTRF): experimental methods. Compound efficacy is determined using the cAMP Gs dynamic HTRF assay (Cisbio, catalog #62AM4PEC) largely following the manufacturer's instructions, also detailed below. Standard serial dilution curves are 10-point, 5-fold dilutions starting from a highest concentration of 10 μM. […] Assay plates are centrifuged at 500×g for 10 seconds. Compounds and IBMX are prepared at 2× final dose to compensate for addition of cells. […]
metric_name: EC50

CC(C)CNC[C@H](O)c1ccc2nc[nH]c2c1 = > 1000 nM
CC(C)(C)NC[C@H](O)c1ccc2c(c1)[nH]c1ncccc12 = > 1000 nM
CC(C)NC[C@H](O)c1cccc2[nH]c3ccccc3c12 = < 10 nM
CC(C)(C)NC[C@H](O)c1cccc2cn[nH]c12 = 10 to 100 nM
CC(C)(C)NC[C@H](O)c1ccc(F)c2cccnc12 = < 10 nM
CC(C)NC[C@H](O)c1cc(F)cc2[nH]ncc12 = < 10 nM
COc1ccc(CC(C)(C)NC[C@H](O)c2cccc3[nH]c4ccccc4c23)cc1 = 10 to 100 nM
CC(C)(C)NC[C@H](O)c1cccc2c1CC(=O)N2 = > 1000 nM
CC(C)(C)NC[C@@H](O)c1cccc2cccnc12 = 100 to 1000 nM
CC(C)(CO)NC[C@H](O)c1cccc2[nH]c(=O)ccc12 = 10 to 100 nM
Cc1noc2ccc([C@H](O)CNC(C)(C)C)cc12 = 100 to 1000 nM
CC(C)(C)NC[C@@H](O)c1ccc(F)c2[nH]c(=O)ccc12 = 100 to 1000 nM
CC(C)(C)NC[C@H](O)c1cccc2ccc(C#N)nc12 = < 10 nM
CC(C)(C)NC[C@H](O)c1cccc2[nH]c3ccccc3c12 = < 10 nM
Cc1ccc2[nH]ncc2c1[C@@H](O)CNC(C)(C)C = > 1000 nM
CC(C)(C)NC[C@H](O)c1nc(C(F)(F)F)cc2ccccc12 = > 1000 nM
Cc1c[nH]c2cccc([C@@H](O)CNC(C)(C)C)c12 = > 1000 nM
CC(C)(C)NC[C@H](O)c1cccc2c1OC(C)(C)C(=O)N2 = < 10 nM
CC(C)(C)NC[C@@H](O)c1ccnc2[nH]ncc12 = > 1000 nM
